Tested on: LNCaP
assay procedure: SRB colorimetric assay of cell growth and viability, LNCaP
Format: cell-based, human
experimental parameters: 48 hours exposure, SRB
Where a SMILES comes first, the peptide text is derived from it. Bridges are numbered along the chain shown (N, C = ends). [ ]: non-standard residue; d: D form. The star is where a group is joined. d(aIle) = CC[C@H](C)[C@@H](N)C(=O)O; d(aThr) = C[C@@H](O)[C@@H](N)C(=O)O; Hexanoyl(5-Me) = CC(C)CCCC(=O)*; Orn = NCCC[C@H](N)C(=O)O; Dhb = C/C=C(\N)C(=O)O

| molecule | endpoint unit | TGI LN-caP |
| --- | --- | --- |
| C/C=C1\NC(=O)[C@H](Cc2c[nH]c3ccccc23)NC(=O)[C@@H](C(C)C)NC(=O)[C@@H]([C@@H](C)CC)NC(=O)[C@H](NC(=O)[C@H](NC(=O)[C@H](CCCN)NC(=O)[C@H]2CCCN2C(=O)[C@H](NC(=O)[C@@H](NC(=O)[C@@H](NC(=O)[C@H](NC(=O)CCCC(C)C)C(C)C)[C@@H](C)O)C(C)C)C(C)C)[C@@H](C)CC)[C@@H](C)OC(=O)[C@H](C(C)C)NC1=O [Compound 68, [Trp^3]-KF] ({Hexanoyl(5-Me)}-[dV]TV[dV][dP][Orn][d(aIle)][d(aThr)][d(aIle)][dV]W[Dhb]V; ester 8-C) | Molar | 2.36E−06 |
| C/C=C1\NC(=O)[C@H](Cc2ccccc2)NC(=O)[C@@H](C(C)C)NC(=O)[C@@H]([C@@H](C)CC)NC(=O)[C@H](NC(=O)[C@H](NC(=O)[C@H](CCCNC(=O)CCCC[C@@H]2SC[C@@H]3NC(=O)N[C@@H]32)NC(=O)[C@H]2CCCN2C(=O)[C@H](NC(=O)[C@@H](NC(=O)[C@@H](NC(=O)[C@H](NC(=O)CCCC(C)C)C(C)C)[C@@H](C)O)C(C)C)C(C)C)[C@@H](C)CC)[C@@H](C)OC(=O)[C@H](C(C)C)NC1=O [Compound 99, [Orn(Biot)^8]-Kahalalide F] | Molar | 1.99E−06 |

###

Tested on: DU-145
assay procedure: SRB colorimetric assay of cell growth and viability, DU-145
Type: cell-based, human
experimental parameters: 48 hours exposure, SRB
Where a SMILES comes first, the peptide text is derived from it. Bridges are numbered along the chain shown (N, C = ends). [ ]: non-standard residue; d: D form. The star is where a group is joined. d(aIle) = CC[C@H](C)[C@@H](N)C(=O)O; d(aThr) = C[C@@H](O)[C@@H](N)C(=O)O; hCha = N[C@@H](CCC1CCCCC1)C(=O)O; Hexanoyl(5-Me) = CC(C)CCCC(=O)*; Orn = NCCC[C@H](N)C(=O)O; Dhb = C/C=C(\N)C(=O)O
property label: GI50 (µM)

| molecule | meas value |
| --- | --- |
| C/C=C1\NC(=O)[C@H](CCC2CCCCC2)NC(=O)[C@@H](C(C)C)NC(=O)[C@@H]([C@@H](C)CC)NC(=O)[C@H](NC(=O)[C@H](NC(=O)[C@H](CCCN)NC(=O)[C@H]2CCCN2C(=O)[C@H](NC(=O)[C@@H](NC(=O)[C@@H](NC(=O)[C@H](NC(=O)CCCC(C)C)C(C)C)[C@@H](C)O)C(C)C)C(C)C)[C@@H](C)CC)[C@@H](C)OC(=O)[C@H](C(C)C)NC1=O [Compound 63] ({Hexanoyl(5-Me)}-[dV]TV[dV][dP][Orn][d(aIle)][d(aThr)][d(aIle)][dV][hCha][Dhb]V; ester 8-C) | 0.119 |
| C/C=C1\NC(=O)[C@H](Cc2ccc(Cl)c(Cl)c2)NC(=O)[C@@H](C(C)C)NC(=O)[C@@H]([C@@H](C)CC)NC(=O)[C@H](NC(=O)[C@H](NC(=O)[C@H](CCCN)NC(=O)[C@H]2CCCN2C(=O)[C@H](NC(=O)[C@@H](NC(=O)[C@@H](NC(=O)[C@H](NC(=O)CC[C@@H](C)CC)C(C)C)[C@@H](C)O)C(C)C)C(C)C)[C@@H](C)CC)[C@@H](C)OC(=O)[C@H](C(C)C)NC1=O [Compound 70, [Phe(3,4-Cl2)^3, (4S)-MeHex^14]-KF] | 0.142 |

###

System: K-562
assay procedure: SRB colorimetric assay of cell growth and viability, K-562
Assay type: cell-based, human
experimental parameters: K-562; 48 hours exposure
Where a SMILES comes first, the peptide text is derived from it. Bridges are numbered along the chain shown (N, C = ends). [ ]: non-standard residue; d: D form. The star is where a group is joined. d(aIle) = CC[C@H](C)[C@@H](N)C(=O)O; d(aThr) = C[C@@H](O)[C@@H](N)C(=O)O; Hexanoyl(5-Me) = CC(C)CCCC(=O)*; Orn = NCCC[C@H](N)C(=O)O; Dhb = C/C=C(\N)C(=O)O

| molecule | subject of test | endpoint unit | TGI K-562 |
| --- | --- | --- | --- |
| C/C=C1\NC(=O)[C@H](Cc2ccccc2)NC(=O)[C@@H](C(C)C)NC(=O)[C@@H]([C@@H](C)CC)NC(=O)[C@H](NC(=O)[C@H](NC(=O)[C@H](CCCN)NC(=O)[C@H]2CCCN2C(=O)[C@H](NC(=O)[C@@H](NC(=O)[C@H](CCC(N)=O)NC(=O)[C@H](NC(=O)CCCC(C)C)C(C)C)C(C)C)C(C)C)[C@@H](C)CC)[C@@H](C)OC(=O)[C@H](C(C)C)NC1=O [Compound 119, [Gln^12]-KF] ({Hexanoyl(5-Me)}-[dV]QV[dV][dP][Orn][d(aIle)][d(aThr)][d(aIle)][dV]F[Dhb]V; ester 8-C) | K-562 | Molar | 1.99E−06 |
| C/C=C1\NC(=O)[C@H](Cc2ccccc2)NC(=O)[C@@H](C(C)C)NC(=O)[C@@H]([C@@H](C)CC)NC(=O)[C@H](NC(=O)[C@H](NC(=O)[C@H](CCCN)NC(=O)[C@H]2CCCN2C(=O)[C@H](NC(=O)[C@@H](NC(=O)[C@H](CCCN)NC(=O)[C@H](NC(=O)CCCC(C)C)C(C)C)C(C)C)C(C)C)[C@@H](C)CC)[C@@H](C)OC(=O)[C@H](C(C)C)NC1=O [Compound 116, [Orn^12]-KF] ({Hexanoyl(5-Me)}-[dV][Orn]V[dV][dP][Orn][d(aIle)][d(aThr)][d(aIle)][dV]F[Dhb]V; ester 8-C) | K-562 | Molar | 2.34E−06 |
| C/C=C1\NC(=O)[C@H](Cc2ccccc2)NC(=O)[C@@H](C(C)C)NC(=O)[C@@H]([C@@H](C)CC)NC(=O)[C@H](NC(=O)[C@H](NC(=O)[C@H](CCCN)NC(=O)[C@H]2CCCN2C(=O)[C@H](NC(=O)[C@@H](NC(=O)[C@@H](NC(=O)[C@@H](CCCN)NC(=O)CCCC(C)C)[C@@H](C)O)C(C)C)C(C)C)[C@@H](C)CC)[C@@H](C)OC(=O)[C@H](C(C)C)NC1=O [Compound 118, [D-Orn^13]-KF] | K-562 | Molar | 3.92E−06 |

###

Test system: HT-29
assay procedure: SRB colorimetric assay of cell growth and viability, HT-29
Type: cell-based, human
experimental parameters: 48 hours exposure
Where a SMILES comes first, the peptide text is derived from it. Bridges are numbered along the chain shown (N, C = ends). [ ]: non-standard residue; d: D form. The star is where a group is joined. d(aIle) = CC[C@H](C)[C@@H](N)C(=O)O; d(aThr) = C[C@@H](O)[C@@H](N)C(=O)O; Hexanoyl(5-Me) = CC(C)CCCC(=O)*; Orn = NCCC[C@H](N)C(=O)O; Dhb = C/C=C(\N)C(=O)O

| compound | TGI HT-29, Molar |
| --- | --- |
| C/C=C1\NC(=O)[C@H](Cc2ccccc2)NC(=O)[C@@H](C(C)C)NC(=O)[C@@H]([C@@H](C)CC)NC(=O)[C@H](NC(=O)[C@H](NC(=O)[C@H](CCCN)NC(=O)[C@H]2CCCN2C(=O)[C@H](NC(=O)CCCC(C)C)C(C)C)[C@@H](C)CC)[C@@H](C)OC(=O)[C@H](C(C)C)NC1=O [Compound 31, [noVal^11, noThr^12, noD-Val^13]-KF] ({Hexanoyl(5-Me)}-[dV][dP][Orn][d(aIle)][d(aThr)][d(aIle)][dV]F[Dhb]V; ester 5-C) | 8.49E−06 |

###

Test system: HeLa
assay procedure: SRB colorimetric assay of cell growth and viability, HeLa
Assay type: cell-based, human
experimental parameters: 48 hours exposure, SRB; read-out: LC50 HELA
Where a SMILES comes first, the peptide text is derived from it. Bridges are numbered along the chain shown (N, C = ends). [ ]: non-standard residue; d: D form. The star is where a group is joined. d(aIle) = CC[C@H](C)[C@@H](N)C(=O)O; d(aThr) = C[C@@H](O)[C@@H](N)C(=O)O; Hexanoyl(5-Me) = CC(C)CCCC(=O)*; Orn = NCCC[C@H](N)C(=O)O; Dhb = C/C=C(\N)C(=O)O

| molecule | CC50 |
| --- | --- |
| C/C=C1\NC(=O)[C@H](Cc2ccccc2)NC(=O)[C@@H](C(C)C)NC(=O)[C@@H]([C@@H](C)CC)NC(=O)[C@H](NC(=O)[C@H](NC(=O)[C@H](CCCN)NC(=O)[C@H]2CCCN2C(=O)[C@H](NC(=O)[C@@H](NC(=O)[C@H](CCC(N)=O)NC(=O)CCCC(C)C)C(C)C)C(C)C)[C@@H](C)CC)[C@@H](C)OC(=O)[C@H](C(C)C)NC1=O [Compound 58, [Gln^12, noD-Val^13]-KF] ({Hexanoyl(5-Me)}-QV[dV][dP][Orn][d(aIle)][d(aThr)][d(aIle)][dV]F[Dhb]V; ester 7-C) | ≥ 7.11 µM |
